Target: T1, recombinant human CD14 (B294801, histidine tagged) (Homo sapiens, UniProt P08571)
T1 construct: His; purchased Shanghai BaiYing Biotechnology Co., Ltd B294801 (Batch number 20200518A22)
T1 sequence (P08571 20-345): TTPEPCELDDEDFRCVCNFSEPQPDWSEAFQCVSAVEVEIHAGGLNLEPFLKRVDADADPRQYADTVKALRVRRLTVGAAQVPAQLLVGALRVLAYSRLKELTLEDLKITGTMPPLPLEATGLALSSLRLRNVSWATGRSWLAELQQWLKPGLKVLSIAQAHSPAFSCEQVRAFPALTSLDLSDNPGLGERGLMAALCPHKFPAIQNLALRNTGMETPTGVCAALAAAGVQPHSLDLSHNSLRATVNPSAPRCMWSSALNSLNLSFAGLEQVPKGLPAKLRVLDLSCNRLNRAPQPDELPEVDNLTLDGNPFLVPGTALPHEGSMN
Assay: Biacore 8K kinetic and affinity test of humanized antibodies (Example 8)
Format: binding
Details: Biacore 8K, analyte B294801 0.78125-25 nM, capture 1 μg/mL
quantity_kind: kon (1:1 binding) (M⁻¹ s⁻¹)
Entry rule: numbers only, all in M⁻¹ s⁻¹.

Example entries begin here.
>>> recorded_result("D6DD3D004: humanized anti-CD14 antibody; VH SEQ ID NO: 13, VL SEQ ID NO: 15 (antibody, V domains shown) VH: QLQLQESGPGLVKPSETLSLTCTVSGGSISSDSAWNWIRQPPGKGLEWIGYISYSGSTSYNPSLKSRVTISRDTSKNQFSLKLSSVTAADTAVYYCVRGLRFAYWGQGTLVTVSS VL: EIVLTQSPATLSLSPGERATLSCRASESVDSYVNSFLHWYQQKPGQAPRLLIYRASNLQSGIPARFSGSGSRTDFTLTISSLEPEDVAVYYCQQSNEDPYTFGQGTKLEIK")
"1.64e+06"
>>> recorded_result("D6DD3D008: humanized anti-CD14 antibody; VH SEQ ID NO: 29, VL SEQ ID NO: 31 (antibody, V domains shown) VH: QVQLQESGPGLVKPSETLSLTCTVSGGSISSDSAWNWIRQPPGKGLEWIGYISYSGSTSYNPSLKSRVTISRDTSKNQFSLKLSSVTAADTAVYYCVRGLRFAYWGQGTLVTVSS VL: DIVLTQSPDSLAVSLGERATINCRASESVDSYVNSFLHWYQQKPGQPPKLLIYRASNLQSGVPDRFSGSGSRTDFTLTISSLQAEDVAVYYCQQSNEDPYTFGQGTKLEIK")
"2.09e+06"
>>> recorded_result("D6DD3D009: humanized anti-CD14 antibody; VH SEQ ID NO: 33, VL SEQ ID NO: 35 (antibody, V domains shown) VH: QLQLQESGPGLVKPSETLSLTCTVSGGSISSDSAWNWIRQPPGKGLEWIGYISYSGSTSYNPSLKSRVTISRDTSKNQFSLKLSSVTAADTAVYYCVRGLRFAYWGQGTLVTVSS VL: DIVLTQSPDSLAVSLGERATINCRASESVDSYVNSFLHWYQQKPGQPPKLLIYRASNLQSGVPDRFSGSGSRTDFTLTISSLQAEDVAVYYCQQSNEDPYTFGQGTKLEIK")
"2.01e+06"

Let's switch to this molecule now.
Recorded kon (1:1 binding) of D6DD3D014: humanized anti-CD14 antibody; VH SEQ ID NO: 53, VL SEQ ID NO: 55 (antibody, V domains shown) VH: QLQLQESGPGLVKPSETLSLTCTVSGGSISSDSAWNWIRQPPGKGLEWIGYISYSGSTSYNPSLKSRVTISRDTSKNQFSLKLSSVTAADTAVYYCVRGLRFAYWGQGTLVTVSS VL: DIQLTQSPSSLSASVGDRVTITCRASESVDSYVNSFLHWYQQKPGKAPKLLIYRASNLQSGVPSRFSGSGSRTDFTLTISSLQPEDVATYYCQQSNEDPYTFGQGTKLEIK , please.
1.77e+06
